Origin of the recorded values: ChEMBL document CHEMBL4390648

System: Arabidopsis thaliana
assay-comment: Inhibition of Arabidopsis thaliana AHAS catalytic subunit using pyruvate as substrate at 10 uM measured after 30 mins by colorimetric method relative to control
For each record, write down the corresponding inhibition.
The answer is to be given in %; state only the numeric part.

IN: What value of inhibition has been recorded for this entry: "COc1nc(OC)nc(Sc2cccc(Cl)c2C#N)n1"
OUT: 19.8

IN: For the compound shown here, "COc1nc(OC)nc(Sc2ccc(Cl)cc2C#N)n1" , give the reported inhibition.
OUT: 44.9

IN: # get_value(readout='inhibition', item= "COc1cc(OC)nc(Sc2ccc(C(=O)O)c(C(F)(F)F)c2)n1" )
OUT: 37.7

IN: Can you share its inhibition? I mean this compound: "COc1nc(OC)nc(Sc2ccc(C(=O)O)cc2Cl)n1"
OUT: 12.6

IN: Consider the compound "COc1cc(OC)nc(Sc2ccc(C(=O)O)cc2F)n1" and give its measured inhibition.
OUT: 40

IN: Quick one: inhibition of "COc1cc(OC)nc(Sc2ccc(C(F)(F)F)cc2C#N)n1" ?
OUT: 28.2

IN: What value of measured inhibition is listed for "COc1nc(OC)nc(Sc2ccc(C(F)(F)F)cc2C#N)n1" ?
OUT: 11.5

IN: Suppose we examine the compound "COc1nc(OC)nc(Sc2ccc(F)cc2C#N)n1" ; what inhibition value has been reported?
OUT: 59.2
